The origin of these recorded values is patent US10919885B2.

Biological target: human SCD5 (Homo sapiens (Human), UniProt Q86SK9)
Sequence (Q86SK9 whole entry): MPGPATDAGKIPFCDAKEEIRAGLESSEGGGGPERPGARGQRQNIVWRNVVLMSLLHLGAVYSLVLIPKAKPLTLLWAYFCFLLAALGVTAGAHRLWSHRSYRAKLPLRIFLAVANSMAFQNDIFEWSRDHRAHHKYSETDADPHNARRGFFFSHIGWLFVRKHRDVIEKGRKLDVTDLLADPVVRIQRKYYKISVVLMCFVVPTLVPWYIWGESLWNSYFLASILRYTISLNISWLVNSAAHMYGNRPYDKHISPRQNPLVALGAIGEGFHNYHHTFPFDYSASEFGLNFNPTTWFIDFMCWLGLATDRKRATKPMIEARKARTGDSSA
Test: Yeast growth assay, strain expressing human SCD5 as the sole desaturase (reduced growth as surrogate for SCD inhibition)
Conditions: yeast with OLE1 deleted expressing human SCD5 from a plasmid; growth read as OD600 after 40 h at 30° C.; top drug concentration 33.3 μM
Record form. Attribute: IC50. Fill in for each entry.

Entry O=C(c1cc(-c2ccco2)on1)N1CC(Cc2ccccc2)C1 needs its IC50 filled in; supply it. 0.63 µM

Recall and state the measured IC50 for COc1ccc(C2CCCN2C(=O)c2cc(-c3ccc4ncoc4c3)on2)cc1 (centres unmarked) . > 45 µM

Dear colleague, please send me the reported IC50 for O=C(NC1CCN(c2ccccc2)CC1)c1cc(-c2ccco2)on1 when you can. > 45 µM

For the molecule O=C(Nc1cnn(Cc2cccnc2)c1)c1cc(-c2ccccc2)on1 , give its reported IC50. > 45 µM

Please list IC50 recorded for the molecule N#Cc1cccnc1C1CCCN1C(=O)c1cc(-c2ccc3c(c2)OCO3)on1 (centres unmarked) > 45 µM

Please look at this molecule and report its IC50: CNC(=O)c1cc(C(=O)Nc2cnn(Cc3cccc(F)c3)c2)no1 > 45 µM

Determine from records and report IC50 for O=C(c1cc(-c2ccccc2)on1)N1CCN(c2ccc(F)cc2)CC1 > 45 µM

Using known records, supply IC50 for O=C(Nc1cnn(CC2CCOCC2)c1)c1cc(-c2ccco2)on1 > 45 µM

// fetch IC50 given entry O=C(c1cc(-c2cccnc2)on1)N1CCC[C@H]1c1ccccc1 > 45 µM

Read the entry O=C(Nc1cnn(Cc2cccc(F)c2)c1)c1cc(-c2cnccn2)on1 and write its reported IC50. > 45 µM

Supply reported IC50 belonging to this molecule: N#Cc1ccccc1C1CCCN1C(=O)c1cc(-c2ccc3c(c2)OCO3)on1 (centres unmarked) > 45 µM

Give IC50 for O=C(c1cc(-c2ccc3c(c2)OCO3)on1)N1CCC(c2ccncc2)CC1 > 45 µM

For the molecule CNC(=O)c1ccc(-c2cc(C(=O)N3CC(Cc4ccccc4)C3)no2)cc1 , give its measured IC50 value. > 45 µM

Look up and state reported IC50 for Cc1cc(C2CCCN2C(=O)c2cc(-c3ccc4c(c3)OCO4)on2)no1 (centres unmarked) > 45 µM

Fill in IC50 for record O=C(c1cc(-c2ccc3c(c2)OCO3)on1)N1CCn2ccnc2C1 > 45 µM

Hello, please tell me recorded IC50 for this one: O=C(c1cc(-c2ccco2)on1)N1CC2(CCCC2)C1 > 45 µM

Please list IC50 recorded for the molecule O=C(Nc1cnn(Cc2ccccc2)n1)c1cc(-c2ccccc2)on1 > 45 µM

For O=C(c1cc(-c2ccccc2)on1)N1CCC(c2ccccc2F)C1 (centres unmarked) , write its IC50. > 45 µM

In one line, give reported IC50 of the entry O=C(c1cc(-c2ccco2)on1)N1CC(F)C1 . > 45 µM

Return IC50 (reported value) for this molecule: O=C(Nc1ccccc1)C1CN(C(=O)c2cc(-c3ccccc3)on2)C1 > 45 µM

----------
Molecular target: human SCD5 (Homo sapiens (Human))
Experiment: Yeast growth assay, strain expressing human SCD5 as the sole desaturase (reduced growth as surrogate for SCD inhibition)
Settings: yeast with OLE1 deleted expressing human SCD5 from a plasmid; growth read as OD600 after 40 h at 30° C.; top drug concentration 33.3 μM
experimentalEndpoint: IC50

In one line, give reported IC50 of the entry O=C(c1cc(-c2ccccc2)on1)N1CCC(c2ccccc2)CC1 . 1.63 µM

Read off the recorded IC50 for CN1CCC2(CCN(C(=O)c3cc(-c4ccccc4)on3)C2)C1 (centres unmarked) > 45 µM

Report measured IC50; entry is O=C(c1cc(-c2ccc3c(c2)OCO3)on1)N1CC(Cc2ccccc2)C1 1.13 µM

Identify measured IC50 associated with Cc1nnc(-c2cc(C(=O)Nc3cnn(Cc4cccc(F)c4)c3)no2)o1 > 45 µM

Answer with the recorded IC50 of O=C(Nc1cnn(CCc2ccccc2)c1)c1cc(-c2ccco2)on1 only. > 45 µM

For the molecule CNC(=O)c1cc(C(=O)N2CCC(c3ccccc3)C2)no1 (centres unmarked) , give its measured IC50 value. 5.28 µM

Given CCOc1ccc(-c2cc(C(=O)N3CCC[C@H]3c3ccccc3)no2)cc1F , respond with its IC50. > 45 µM

Look up and state reported IC50 for O=C(c1cc(-c2ccc3c(c2)OCO3)on1)N1CCCC12CC2 4.92 µM

In one line, give reported IC50 of the entry CN(C(=O)c1cc(-c2ccccc2)on1)c1cnn(Cc2cc(F)ccc2C(F)(F)F)c1 . > 45 µM

Look up and report measured IC50 for this entry: O=C(c1cc(-c2ccc3c(c2)OCO3)on1)N1CCCC1c1cccnc1 (centres unmarked) > 45 µM

Item O=C(c1noc2cc(Br)ccc12)N1CCC[C@H]1c1ccccc1 : provide IC50 41.7 µM

Given the molecule O=C(Nc1cn(Cc2ccccc2)nn1)c1cc(-c2ccccc2)on1 , write its reported IC50. > 45 µM

Give IC50 for O=C(Nc1cnn(Cc2cc(F)ccc2C(F)(F)F)c1)c1cc(-c2ccccc2)on1 > 45 µM

Give me measured IC50, please, for this molecule: O=C(c1cc(-c2ccccc2)on1)N1CC(Nc2ccccc2)C1 > 45 µM

Report measured IC50; entry is O=C(Nc1cnn(Cc2ccccc2)c1)c1cc(-c2cccc3c2cnn3C2COC2)on1 > 45 µM

Identify measured IC50 corresponding to O=C(c1cc(-c2ccc3c(c2)OCO3)on1)N1CC(c2cccc(F)c2)C1 1.92 µM

Recall and state the measured IC50 for N#Cc1ccc(F)cc1Cn1cc(NC(=O)c2cc(-c3ccccc3)on2)cn1 . > 45 µM

Hello, please tell me recorded IC50 for this one: O=C(Nc1cnn(Cc2cc(F)ccc2C(F)(F)F)c1)c1cc(-c2ncccc2F)on1 > 45 µM

State its IC50: O=C(Nc1cnn(Cc2ccccc2)c1)c1cc(-c2cccc3cn(C4COC4)nc23)on1 > 45 µM

Using the record for Cc1nnc(-c2cc(C(=O)Nc3cnn(Cc4ccccc4)c3)no2)s1 , state its measured IC50. > 45 µM

Assign IC50 to the following record: O=C(c1cc(-c2ccnnc2)on1)N1CCC[C@H]1c1ccccc1 > 45 µM

Supply recorded IC50 for Cc1nnc(-c2cc(C(=O)Nc3cnn(Cc4ccccc4)c3)no2)o1 here. > 45 µM

Dear colleague, please send me the reported IC50 for Cc1cc(C2CCCN2C(=O)c2cc(-c3ccco3)on2)on1 (centres unmarked) when you can. > 45 µM

Please list IC50 recorded for the molecule O=C(c1cc(-c2ccccc2)on1)N1CCCC1Cc1ccccc1 (centres unmarked) 8.9 µM

Complete the entry with IC50 for C=C(C)c1cc(C(=O)Nc2cnn(Cc3cc(F)ccc3C(F)(F)F)c2)no1 > 45 µM

Return the recorded IC50 value; entry: O=C(c1cc(-c2ccccc2)on1)N1CC(CCl)(CNc2ccccc2)C1 1.36 µM

Query IC50 for Cc1c(NC(=O)c2cc(-c3ccco3)on2)cnn1Cc1ccc(Cl)c(Cl)c1 > 45 µM

Please report IC50 for the following molecule: O=C(NC1CCN(Cc2ccccc2)CC1)c1cc(-c2ccco2)on1 > 45 µM

Please give the documented IC50 of O=C(c1cc(-c2ccco2)on1)N1CC(c2ccccc2)C1 1.14 µM
